// data source = patent US20160297889A1

Molecular target: T1, CAPRIN-1 protein expressed on the membrane surface of human cancer cells (human, UniProt Q14444 2-709)
T1 sequence (looked up): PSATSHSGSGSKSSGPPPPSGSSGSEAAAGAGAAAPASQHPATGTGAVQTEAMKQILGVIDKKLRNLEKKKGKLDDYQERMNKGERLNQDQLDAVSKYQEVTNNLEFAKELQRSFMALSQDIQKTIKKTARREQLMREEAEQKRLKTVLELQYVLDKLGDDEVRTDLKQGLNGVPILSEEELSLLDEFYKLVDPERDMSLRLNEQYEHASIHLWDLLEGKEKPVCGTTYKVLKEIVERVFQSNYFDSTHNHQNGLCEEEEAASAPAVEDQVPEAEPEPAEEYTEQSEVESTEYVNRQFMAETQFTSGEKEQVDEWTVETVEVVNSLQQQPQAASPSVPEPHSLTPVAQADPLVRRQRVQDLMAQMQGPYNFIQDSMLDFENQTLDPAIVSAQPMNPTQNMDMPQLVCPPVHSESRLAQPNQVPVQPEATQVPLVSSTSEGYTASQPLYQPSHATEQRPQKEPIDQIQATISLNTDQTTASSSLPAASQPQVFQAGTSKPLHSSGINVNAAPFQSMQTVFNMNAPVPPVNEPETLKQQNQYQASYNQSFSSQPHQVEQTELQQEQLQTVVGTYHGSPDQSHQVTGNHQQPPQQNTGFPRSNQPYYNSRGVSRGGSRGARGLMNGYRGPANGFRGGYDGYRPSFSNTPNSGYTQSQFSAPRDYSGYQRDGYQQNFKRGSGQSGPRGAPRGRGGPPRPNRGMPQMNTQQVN
Assay: cell-based or functional assay
Parameter Measured: ADCC cytotoxic activity (51Cr release) on 22Rv1

Examples from the recorded data:
humanized antibody #10 (antibody, V domains shown) VH: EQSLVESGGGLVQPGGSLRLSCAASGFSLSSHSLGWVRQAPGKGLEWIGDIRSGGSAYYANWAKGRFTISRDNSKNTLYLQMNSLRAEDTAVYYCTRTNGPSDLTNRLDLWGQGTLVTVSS VL: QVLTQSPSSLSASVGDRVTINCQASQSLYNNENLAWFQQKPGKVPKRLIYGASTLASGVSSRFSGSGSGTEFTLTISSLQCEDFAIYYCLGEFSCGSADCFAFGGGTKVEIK : ≥ 49%
humanized antibody #1 (antibody, V domains shown) VH: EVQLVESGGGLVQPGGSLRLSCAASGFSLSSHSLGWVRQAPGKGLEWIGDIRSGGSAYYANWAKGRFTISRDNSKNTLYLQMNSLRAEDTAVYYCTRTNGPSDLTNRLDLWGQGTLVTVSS VL: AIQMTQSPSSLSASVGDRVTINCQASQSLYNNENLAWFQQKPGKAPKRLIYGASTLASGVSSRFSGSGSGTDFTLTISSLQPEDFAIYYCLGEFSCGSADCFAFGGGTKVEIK : ≥ 38%
humanized antibody #6 (antibody, V domains shown) VH: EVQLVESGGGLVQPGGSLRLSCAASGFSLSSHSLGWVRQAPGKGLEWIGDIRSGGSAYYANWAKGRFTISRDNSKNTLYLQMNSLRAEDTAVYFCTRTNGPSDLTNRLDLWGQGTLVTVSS VL: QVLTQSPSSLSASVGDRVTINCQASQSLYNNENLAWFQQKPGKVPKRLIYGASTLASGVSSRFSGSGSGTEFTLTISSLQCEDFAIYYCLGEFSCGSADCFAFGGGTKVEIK : ≥ 49%
humanized antibody #5 (antibody, V domains shown) VH: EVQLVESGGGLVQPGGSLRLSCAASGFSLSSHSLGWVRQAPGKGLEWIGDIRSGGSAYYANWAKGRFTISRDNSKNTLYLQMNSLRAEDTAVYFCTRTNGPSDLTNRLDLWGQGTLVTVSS VL: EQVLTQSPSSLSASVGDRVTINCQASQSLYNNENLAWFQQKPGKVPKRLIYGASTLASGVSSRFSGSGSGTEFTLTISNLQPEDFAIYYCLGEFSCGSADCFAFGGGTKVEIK : ≥ 45%

What measured ADCC cytotoxic activity (51Cr release) on 22Rv1 goes with humanized antibody #2 (antibody, V domains shown) VH: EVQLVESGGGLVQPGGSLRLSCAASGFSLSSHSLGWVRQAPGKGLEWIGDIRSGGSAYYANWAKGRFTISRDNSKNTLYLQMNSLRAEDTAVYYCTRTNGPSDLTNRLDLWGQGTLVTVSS VL: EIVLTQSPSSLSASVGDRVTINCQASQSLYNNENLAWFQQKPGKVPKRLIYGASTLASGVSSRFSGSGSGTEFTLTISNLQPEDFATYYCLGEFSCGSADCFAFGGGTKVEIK ?
≥ 45%
